B1: CPEB3 Ribozyme (parent)
chain: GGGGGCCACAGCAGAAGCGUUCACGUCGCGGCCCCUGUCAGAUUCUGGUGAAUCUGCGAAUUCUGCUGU

Variants of: B1
assay_info: self-cleavage, relative activity (ratio to wild type); higher = more cleavage; co-transcriptional
readout: self-cleavage
Answers are plain numbers.

Go through the list and state self-cleavage for each entry.
1. G30U C63G
2. U20G C32U

[A]
[0.261, 0.157]
